meta.source: patent US8173645B2

Biological target: glucokinase (GK), residues 12-465 of the human enzyme (Homo sapiens, UniProt P35557)
Construct: I.D. No. 1 corresponds to residues 12-465 of glucokinase; made in house; host or cells: E. coli DH10b-Tlr
Sequence (P35557 with tags, fused parts or gaps isoform P35557-2): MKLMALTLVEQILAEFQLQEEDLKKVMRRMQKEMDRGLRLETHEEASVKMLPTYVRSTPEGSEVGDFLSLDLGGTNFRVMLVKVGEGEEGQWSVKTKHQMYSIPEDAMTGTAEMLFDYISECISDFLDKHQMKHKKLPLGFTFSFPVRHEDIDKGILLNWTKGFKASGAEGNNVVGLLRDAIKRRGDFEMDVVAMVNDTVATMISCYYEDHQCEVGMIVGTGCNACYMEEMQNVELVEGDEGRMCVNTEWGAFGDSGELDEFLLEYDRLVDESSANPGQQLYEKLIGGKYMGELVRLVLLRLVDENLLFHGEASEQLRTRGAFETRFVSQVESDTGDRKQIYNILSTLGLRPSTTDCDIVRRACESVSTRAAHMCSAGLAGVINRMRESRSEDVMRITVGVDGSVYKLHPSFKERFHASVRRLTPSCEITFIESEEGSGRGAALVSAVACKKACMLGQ
Assay: Enzymatic glucokinase activity assay (KinaseGlo luminescence, ATP consumption)
Type: biochemical
Conditions: calculated maximal gain in GK enzyme activity at a saturating concentration of the compound; 5 μM ATP, 5 mM Glucose; read-out: % ACTmax
Listing: Emax of selected molecules

Known results for molecules:
Output Emax of Cc1cccc(S(=O)(=O)N2CCN([C@@H](CC3CCCCC3)C(=O)Nc3nccs3)C(=O)C2)c1 [Example 192]
≥ 119%

Output Emax of Cc1ccc(S(=O)(=O)N2CCN([C@@H](CC3CCCCC3)C(=O)Nc3nccs3)C(=O)C2)c(F)c1 [Example 222]
108 to 119%

Output Emax of O=C(Nc1nccs1)[C@H](CC1CCCCC1)N1CCN(S(=O)(=O)c2cccc([N+](=O)[O-])c2)CC1=O [Example 156]
97.1 to 107%

Output Emax of Cc1ccc(S(=O)(=O)N2CCN([C@@H](CC3CCCCC3)C(=O)Nc3nccs3)C(=O)C2)cc1F [Example 189]
108 to 119%

Output Emax of O=C(Nc1nccs1)[C@H](CC1CCCCC1)N1CCN(C(=S)NC2CCCCC2)CC1=O [Example 114]
97.1 to 107%

Output Emax of N#Cc1cccc(NC(=S)N2CCN([C@@H](CC3CCCCC3)C(=O)Nc3nccs3)C(=O)C2)c1 [Example 116]
≥ 119%

Output Emax of O=C(Nc1nccs1)[C@H](CC1CCCCC1)N1CCN(S(=O)(=O)c2ccc(F)c(F)c2F)CC1=O [Example 183]
≥ 119%

Output Emax of O=C(Nc1nccs1)[C@H](CC1CCCCC1)N1CCN(S(=O)(=O)c2ccc(Oc3ccccn3)cc2)CC1=O [Example 207]
74.1 to 97%

---
Output Emax of O=C(Nc1nccs1)[C@H](CC1CCCCC1)N1CCN(C(=S)NCCN2CCCCC2)CC1=O [Example 121]
97.1 to 107%

Output Emax of COC(=O)c1ccc(S(=O)(=O)N2CCN([C@@H](CC3CCCCC3)C(=O)Nc3nccs3)C(=O)C2)o1 [Example 158]
74.1 to 97%

Output Emax of O=C(Nc1nccs1)[C@H](CC1CCCCC1)N1CCN(S(=O)(=O)c2cccc3ccccc23)CC1=O [Example 65]
≤ 74%

Output Emax of N#Cc1ccc(S(=O)(=O)N2CCN([C@@H](CC3CCCCC3)C(=O)Nc3nccs3)C(=O)C2)cc1 [Example 66]
74.1 to 97%

Output Emax of O=C(Nc1nccs1)[C@H](CC1CCCCC1)N1CCN(S(=O)(=O)c2ccc(Oc3ccccc3)nc2)CC1=O [Example 209]
≤ 74%

Output Emax of O=C(Nc1nccs1)[C@H](CC1CCCCC1)N1CCN(C(=S)Nc2cccc(Cl)c2)CC1=O [Example 81]
97.1 to 107%

Output Emax of Cc1nc(S(=O)(=O)N2CCN([C@@H](CC3CCCCC3)C(=O)Nc3nccs3)C(=O)C2)cn1C [Example 48]
108 to 119%

Output Emax of Cc1cc(F)ccc1S(=O)(=O)N1CCN([C@@H](CC2CCCCC2)C(=O)Nc2nccs2)C(=O)C1 [Example 223]
97.1 to 107%

Output Emax of Cc1oncc1S(=O)(=O)N1CCN([C@@H](CC2CCCCC2)C(=O)Nc2nccs2)C(=O)C1 [Example 60]
≤ 74%

Output Emax of O=C(Nc1nccs1)[C@H](CC1CCCCC1)N1CCN(C(=O)NC2CCCC2)CC1=O [Example 140]
74.1 to 97%
